Assignment: determine reported self-splicing fitness (ln) for the given sequences.
protocol-text: self-splicing fitness, log relative to wild type (ln ratio); higher = more splicing; Tetrahymena group I intron in knt gene, E. coli kanamycin selection, DiMSum; sequences stand for … in CUCUCU…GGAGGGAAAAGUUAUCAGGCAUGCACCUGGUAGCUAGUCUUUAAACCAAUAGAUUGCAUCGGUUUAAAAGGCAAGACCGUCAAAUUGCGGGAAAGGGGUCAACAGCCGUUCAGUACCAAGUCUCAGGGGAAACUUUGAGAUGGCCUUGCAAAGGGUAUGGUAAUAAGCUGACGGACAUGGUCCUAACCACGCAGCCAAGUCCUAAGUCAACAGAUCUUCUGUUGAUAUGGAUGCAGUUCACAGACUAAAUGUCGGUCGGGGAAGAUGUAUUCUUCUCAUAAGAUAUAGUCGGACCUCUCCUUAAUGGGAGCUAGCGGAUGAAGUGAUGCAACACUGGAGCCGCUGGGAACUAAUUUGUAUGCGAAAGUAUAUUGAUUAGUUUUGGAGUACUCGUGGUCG;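 also: selection with 25 µg/mL kanamycin versus none on LB agar overnight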
particulars: 30 °C
Response field accepts a number only; no unit should be typed.

**Query** Please give measured self-splicing fitness (ln) of the following entry: UGGUAGCAAUAUUACGCAGA
**Result** -2.45

**Query** Please give measured self-splicing fitness (ln) of the following entry: GAGGAGCAAUAUUACGGAUC
**Result** -1.61

**Query** Please give measured self-splicing fitness (ln) of the following entry: GCUCAGCAAUAUUACGUAAU
**Result** -0.739

**Query** Please give measured self-splicing fitness (ln) of the following entry: AAAUAGCAAUAUUACGCGGA
**Result** -1.9

**Query** Please give measured self-splicing fitness (ln) of the following entry: UGGGAGCAAUAUUACGUGUG
**Result** -1.75

**Query** Please give measured self-splicing fitness (ln) of the following entry: AGGAAGCAAUAUUACGCCAU
**Result** -3.16

**Query** Please give measured self-splicing fitness (ln) of the following entry: AAGUAGCAAUAUUACGACUA
**Result** -0.0153

**Query** Please give measured self-splicing fitness (ln) of the following entry: UCCCAGCAAUAUUACGGUUU
**Result** -1.23

**Query** Please give measured self-splicing fitness (ln) of the following entry: AUUGAGCAAUAUUACGAGGG
**Result** -2.87

**Query** Please give measured self-splicing fitness (ln) of the following entry: AAGGAGCAAUAUUACGUGAA
**Result** -2.22

**Query** Please give measured self-splicing fitness (ln) of the following entry: CGAGAGCAAUAUUACGCCUC
**Result** -4.16

**Query** Please give measured self-splicing fitness (ln) of the following entry: AGGUAGCAAUAUUACGAAUA
**Result** -2.28

**Query** Please give measured self-splicing fitness (ln) of the following entry: UGACAGCAAUAUUACGGGCC
**Result** -3.34

**Query** Please give measured self-splicing fitness (ln) of the following entry: GAUUAGCAAUAUUACGUACA
**Result** -1.89

**Query** Please give measured self-splicing fitness (ln) of the following entry: GAAGAGCAAUAUUACGAUGC
**Result** -2.13

**Query** Please give measured self-splicing fitness (ln) of the following entry: CCUAAGCAAUAUUACGCGUG
**Result** -3.34

**Query** Please give measured self-splicing fitness (ln) of the following entry: UAACAGCAAUAUUACGAUGA
**Result** -1.01

**Query** Please give measured self-splicing fitness (ln) of the following entry: GGACAGCAAUAUUACGGUUA
**Result** -0.28

**Query** Please give measured self-splicing fitness (ln) of the following entry: UUUUAGCAAUAUUACGCUCG
**Result** -0.861

**Query** Please give measured self-splicing fitness (ln) of the following entry: CGCCAGCAAUAUUACGCUGU
**Result** -3.38

**Query** Please give measured self-splicing fitness (ln) of the following entry: CCCUAGCAAUAUUACGCUCG
**Result** -2.25

###

protocol-text: self-splicing fitness, log relative to wild type (ln ratio); higher = more splicing; Tetrahymena group I intron in knt gene, E. coli kanamycin selection, DiMSum; sequences stand for … in CUCUCU…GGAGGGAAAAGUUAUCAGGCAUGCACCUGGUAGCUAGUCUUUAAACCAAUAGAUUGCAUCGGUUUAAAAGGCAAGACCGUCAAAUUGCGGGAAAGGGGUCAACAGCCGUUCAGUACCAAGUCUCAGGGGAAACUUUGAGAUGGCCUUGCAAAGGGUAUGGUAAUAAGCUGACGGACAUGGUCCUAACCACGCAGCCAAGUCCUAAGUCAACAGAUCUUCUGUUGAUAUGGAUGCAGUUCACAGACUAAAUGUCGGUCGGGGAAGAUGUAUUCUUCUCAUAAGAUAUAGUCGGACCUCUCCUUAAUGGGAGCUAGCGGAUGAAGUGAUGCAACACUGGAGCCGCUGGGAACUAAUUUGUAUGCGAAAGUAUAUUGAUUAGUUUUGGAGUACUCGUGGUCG
particulars: 30 °C
Assignment: determine reported self-splicing fitness (ln) for the given sequences.

**Query** Please give measured self-splicing fitness (ln) of the following entry: AGGAAGCAAUAUUACGCUGA
**Result** -2.96

**Query** Please give measured self-splicing fitness (ln) of the following entry: CCCGAGCAAUAUUACGGGAC
**Result** -3.05

**Query** Please give measured self-splicing fitness (ln) of the following entry: AUACAGCAAUAUUACGCUUU
**Result** -3.04

###

protocol-text: self-splicing fitness, log relative to wild type (ln ratio); higher = more splicing; Tetrahymena group I intron in knt gene, E. coli kanamycin selection, DiMSum; sequences stand for … in CUCUCU…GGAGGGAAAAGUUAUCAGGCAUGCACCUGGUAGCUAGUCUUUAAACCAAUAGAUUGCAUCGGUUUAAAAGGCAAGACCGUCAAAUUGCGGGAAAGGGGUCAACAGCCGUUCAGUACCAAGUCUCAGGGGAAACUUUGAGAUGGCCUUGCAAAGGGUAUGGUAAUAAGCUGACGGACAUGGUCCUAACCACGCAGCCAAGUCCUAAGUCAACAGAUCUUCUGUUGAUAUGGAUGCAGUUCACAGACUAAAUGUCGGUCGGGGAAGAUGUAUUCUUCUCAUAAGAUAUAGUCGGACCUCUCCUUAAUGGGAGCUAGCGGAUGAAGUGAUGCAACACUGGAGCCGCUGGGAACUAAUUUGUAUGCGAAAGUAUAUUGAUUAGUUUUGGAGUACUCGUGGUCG
particulars: 37 °C
// Not fulfilled strictly below -2 in self-splicing fitness (ln); Fulfilled otherwise

**Query** Check this sequence for self-splicing fitness (ln) at or above -2: GAUGAGCAAUAUUACGCGGG
**Result** Not fulfilled

**Query** Check this sequence for self-splicing fitness (ln) at or above -2: AGUGAGCAAUAUUACGCCGA
**Result** Not fulfilled

**Query** Check this sequence for self-splicing fitness (ln) at or above -2: GGAUAGCAAUAUUACGUAUG
**Result** Fulfilled

**Query** Check this sequence for self-splicing fitness (ln) at or above -2: UCACAGCAAUAUUACGUUUC
**Result** Not fulfilled

**Query** Check this sequence for self-splicing fitness (ln) at or above -2: UCAGAGCAAUAUUACGGUUG
**Result** Not fulfilled

**Query** Check this sequence for self-splicing fitness (ln) at or above -2: CUUAAGCAAUAUUACGGAGU
**Result** Not fulfilled

**Query** Check this sequence for self-splicing fitness (ln) at or above -2: UAGCAGCAAUAUUACGACAC
**Result** Not fulfilled

**Query** Check this sequence for self-splicing fitness (ln) at or above -2: CUGGAGCAAUAUUACGACAA
**Result** Fulfilled

**Query** Check this sequence for self-splicing fitness (ln) at or above -2: CCCGAGCAAUAUUACGGUCA
**Result** Not fulfilled

**Query** Check this sequence for self-splicing fitness (ln) at or above -2: CCCCAGCAAUAUUACGAACA
**Result** Not fulfilled

**Query** Check this sequence for self-splicing fitness (ln) at or above -2: AACUAGCAAUAUUACGUGCC
**Result** Fulfilled

**Query** Check this sequence for self-splicing fitness (ln) at or above -2: GGAAAGCAAUAUUACGGACC
**Result** Fulfilled

**Query** Check this sequence for self-splicing fitness (ln) at or above -2: GUGGAGCAAUAUUACGGUGG
**Result** Not fulfilled

**Query** Check this sequence for self-splicing fitness (ln) at or above -2: UCGUAGCAAUAUUACGGGGU
**Result** Not fulfilled

**Query** Check this sequence for self-splicing fitness (ln) at or above -2: CGAAAGCAAUAUUACGUUCU
**Result** Fulfilled

**Query** Check this sequence for self-splicing fitness (ln) at or above -2: UACGAGCAAUAUUACGUCAU
**Result** Not fulfilled

**Query** Check this sequence for self-splicing fitness (ln) at or above -2: GCCUAGCAAUAUUACGUAAU
**Result** Fulfilled

**Query** Check this sequence for self-splicing fitness (ln) at or above -2: GCACAGCAAUAUUACGUUAU
**Result** Fulfilled

**Query** Check this sequence for self-splicing fitness (ln) at or above -2: UUCAAGCAAUAUUACGUCGU
**Result** Fulfilled

**Query** Check this sequence for self-splicing fitness (ln) at or above -2: UAGCAGCAAUAUUACGUUAU
**Result** Not fulfilled

**Query** Check this sequence for self-splicing fitness (ln) at or above -2: UUACAGCAAUAUUACGUCCU
**Result** Fulfilled

**Query** Check this sequence for self-splicing fitness (ln) at or above -2: GCCGAGCAAUAUUACGUUGU
**Result** Fulfilled

**Query** Check this sequence for self-splicing fitness (ln) at or above -2: AGAUAGCAAUAUUACGAACC
**Result** Fulfilled

**Query** Check this sequence for self-splicing fitness (ln) at or above -2: CUAUAGCAAUAUUACGUACG
**Result** Fulfilled

**Query** Check this sequence for self-splicing fitness (ln) at or above -2: GCUCAGCAAUAUUACGUACA
**Result** Fulfilled

**Query** Check this sequence for self-splicing fitness (ln) at or above -2: GCACAGCAAUAUUACGCUCG
**Result** Fulfilled

**Query** Check this sequence for self-splicing fitness (ln) at or above -2: GCAAAGCAAUAUUACGUAAU
**Result** Fulfilled

**Query** Check this sequence for self-splicing fitness (ln) at or above -2: GUACAGCAAUAUUACGAUAG
**Result** Fulfilled

**Query** Check this sequence for self-splicing fitness (ln) at or above -2: UAAAAGCAAUAUUACGUCGC
**Result** Not fulfilled

**Query** Check this sequence for self-splicing fitness (ln) at or above -2: AAUGAGCAAUAUUACGGGUA
**Result** Fulfilled

**Query** Check this sequence for self-splicing fitness (ln) at or above -2: CUAAAGCAAUAUUACGAUCG
**Result** Fulfilled

**Query** Check this sequence for self-splicing fitness (ln) at or above -2: AAAAAGCAAUAUUACGACAA
**Result** Fulfilled

**Query** Check this sequence for self-splicing fitness (ln) at or above -2: ACCUAGCAAUAUUACGUUAU
**Result** Fulfilled

**Query** Check this sequence for self-splicing fitness (ln) at or above -2: GCAAAGCAAUAUUACGGGAC
**Result** Fulfilled

Hey, just so you know, these numbers are from the supplement of paper PMC7877785.
